test target: KRAS-G12D protein (Homo sapiens, UniProt P01116, G12D)
Sequence (P01116 1-188 isoform P01116-2 G12D): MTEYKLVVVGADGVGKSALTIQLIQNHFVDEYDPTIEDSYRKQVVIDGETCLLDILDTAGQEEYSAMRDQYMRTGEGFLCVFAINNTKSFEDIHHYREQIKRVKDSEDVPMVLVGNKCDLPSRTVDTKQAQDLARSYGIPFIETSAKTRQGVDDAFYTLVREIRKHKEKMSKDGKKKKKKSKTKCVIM
method summary: SOS-mediated nucleotide exchange assay (BODIPY-GDP / Tb-streptavidin TR-FRET)
Assay type: biochemical
pEC50: −log10 of the molar value. *1 amine or outer side, *2 acyl side, *3 side chain or, on linkers, in order; H or OH if unused. Where a SMILES comes first, the peptide text is derived from it. Bridges are numbered along the chain shown (N, C = ends). [ ]: non-standard residue; d: D form. The star is where a group is joined. Phe(4-guanidino) = N=C(N)Nc1ccc(C[C@H](N)C(=O)O)cc1; X49 = O=C(O)Cc1cccc(C[C@H](N[*:1])C(=O)[*:2])c1; Ala(pyrimidin-5-yl) = N[C@@H](Cc1cncnc1)C(=O)O; NMe3Pal(6-Me) = CN[C@@H](Cc1ccc(C)nc1)C(=O)O; NMePhe(3-Me) = CN[C@@H](Cc1cccc(C)c1)C(=O)O; X39 = CN([C@@H](Cc1cccnc1F)C(=O)[*:2])[*:1]; X67 = O=C([C@H](Cc1ncc(Cl)cn1)N[*:1])[*:2]; Ethyl(2-pyrrolidin-1-yl) = C1CCN(CC*)C1; Nle(5,5-F2) = CC(F)(F)CC[C@H](N)C(=O)O; Phe(4-F) = N[C@@H](Cc1ccc(F)cc1)C(=O)O; Phe(4-Me) = Cc1ccc(C[C@H](N)C(=O)O)cc1; 1Nal = N[C@@H](Cc1cccc2ccccc12)C(=O)O; NHCH2CH2SCH2CO = O=C(CSCCN[*:1])[*:2]; Phe(2-F) = N[C@@H](Cc1ccccc1F)C(=O)O; NMe3Pal = CN[C@@H](Cc1cccnc1)C(=O)O; X1 = O=C(C12CC(CN[*:1])(C1)C2)[*:2]; Ala(cPr) = N[C@@H](CC1CC1)C(=O)O; NMeF = CN[C@@H](Cc1ccccc1)C(=O)O; PhLac = O=C(O)[C@@H](O)Cc1ccccc1; X4 = O=C([C@H](CCCF)N[*:1])[*:2]; 3Pal = N[C@@H](Cc1cccnc1)C(=O)O; 4Pal = N[C@@H](Cc1ccncc1)C(=O)O; Ahp(2) = CCCCC[C@H](N)C(=O)O; Cba = N[C@@H](CC1CCC1)C(=O)O; hLeu = CC(C)CC[C@H](N)C(=O)O; αMeC = C[C@](N)(CS)C(=O)O; NMeA = CN[C@@H](C)C(=O)O; Nle = CCCC[C@H](N)C(=O)O; Nva = CCC[C@H](N)C(=O)O
Returns one of t or f; t when pEC50 is >= 6.

>>> class_label("CC(C)CC[C@@H]1NC(=O)[C@H](Cc2ccccc2F)NC(=O)[C@H](CCCF)NC(=O)[C@H](Cc2cncnc2)NC(=O)[C@H](C)N(C)C(=O)[C@H](Cc2ccccc2)OC(=O)C23CC(CNC(=O)[C@H](Cc4ccccc4)N(C)C1=O)(C2)C3 [compound 133] (cyclo([NMeA][Ala(pyrimidin-5-yl)][X4][Phe(2-F)][hLeu][NMeF][X1][PhLac]))")
"t"
>>> class_label("CCCC[C@@H]1NC(=O)[C@H](Cc2ccc(NC(=N)N)cc2)NC(=O)[C@H](CCCNC(=N)N)NC(=O)[C@H](Cc2cccc3ccccc23)NC(=O)CNC(=O)[C@H](C)NC(=O)[C@H](Cc2ccccc2)N(C)C(=O)[C@H](CCCC)NC(=O)[C@H](Cc2ccc(O)cc2)NC1=O [compound 199, cyclo(INal-R-Phe4Gn-Nle-Y-Nle-NMeF-A-G)] (cyclo([1Nal]R[Phe(4-guanidino)][Nle]Y[Nle][NMeF]AG))")
"t"
>>> class_label("CCCCC[C@@H]1NC(=O)[C@H](Cc2ccc(OC)cc2)NC(=O)[C@H](CC2CCC2)NC(=O)[C@H](Cc2ccn(C)n2)NC(=O)[C@H](CCCNC(=N)N)NC(=O)[C@H](Cc2ccccc2)NC(=O)CSC[C@@](C)(C(N)=O)NC(=O)[C@H](Cc2ccccc2)N(C)C1=O")
"f"
>>> class_label("CC(C)CC[C@@H]1NC(=O)[C@H](Cc2ccccc2F)NC(=O)[C@H](CC2CC2)NC(=O)[C@H](Cc2cncnc2)NC(=O)[C@H](C)N(C)C(=O)[C@H](Cc2ccccc2)OC(=O)C23CC(CNC(=O)[C@H](Cc4cccnc4F)N(C)C1=O)(C2)C3 [compound 336] (cyclo([Ala(cPr)][Phe(2-F)][hLeu][X39][X1][PhLac][NMeA][Ala(pyrimidin-5-yl)]))")
"t"
>>> class_label("CCCC[C@@H]1NC(=O)[C@H](Cc2cccnc2)NC(=O)[C@H](C)N(C)C(=O)[C@H](Cc2ccc(C)cc2)NC(=O)C23CC(CNC(=O)[C@H](Cc4cccnc4)N(C)C(=O)[C@H](CCCC)NC(=O)[C@H](Cc4ccccc4F)NC1=O)(C2)C3 [compound 170] (cyclo([3Pal][Nle][Phe(2-F)][Nle][NMe3Pal][X1][Phe(4-Me)][NMeA]))")
"t"
>>> class_label("CCCC[C@@H]1NC(=O)[C@H](CCCCN)NC(=O)[C@H](CCCNC(=N)N)NC(=O)[C@H](Cc2cccc3ccccc23)NC(=O)CSCCNC(=O)[C@H](Cc2ccccc2)N(C)C(=O)[C@H](CCCC)NC(=O)[C@H](Cc2cccc(CC(=O)O)c2)NC1=O [compound 196] (cyclo([1Nal]RK[Nle][X49][Nle][NMeF][NHCH2CH2SCH2CO]))")
"f"
>>> class_label("CCCCC[C@@H]1NC(=O)[C@H](Cc2ccc(OC)cc2)NC(=O)[C@H](CC2CCC2)NC(=O)[C@H](Cc2cccnc2)NC(=O)[C@H](CCCNC(=N)N)NC(=O)[C@H](Cc2ccccc2)NC(=O)CSC[C@@](C)(C(N)=O)NC(=O)[C@H](Cc2ccc(C)nc2)N(C)C1=O [compound 377] ({CH2CO}-FR[3Pal][Cba]Y(Me)[Ahp(2)][NMe3Pal(6-Me)][αMeC]-NH2; thioether N-8)")
"t"
>>> class_label("CCC[C@@H]1NC(=O)[C@H](Cc2ccc(O)cc2)NC(=O)[C@H](CC(C)C)NC(=O)[C@H](Cc2ccc(O)cc2)NC(=O)[C@H](CCCNC(=N)N)NC(=O)[C@H](Cc2ccccc2)NC(=O)CSCCNC(=O)[C@H](Cc2ccccc2)N(C)C1=O")
"f"

Query: Would you say CCC[C@@H]1NC(=O)[C@H](Cc2ccc(OC)cc2)NC(=O)[C@H](CC(C)C)NC(=O)[C@H](Cc2ccncc2)NC(=O)[C@H](CCCNC(=N)N)NC(=O)[C@H](Cc2ccc(F)cc2)NC(=O)CSC[C@H](C(=O)NCC(=O)O)NC(=O)[C@H](Cc2ccccc2)N(C)C1=O [compound 65] ({CH2CO}-[Phe(4-F)]R[4Pal]LY(Me)[Nva][NMeF][dC]G-OH; thioether N-8) shows pEC50 at minimum 6?
Reply: t

Query: Next: CCCC[C@@H]1NC(=O)[C@H](Cc2ncc(Cl)cn2)NC(=O)[C@H](C)N(C)C(=O)[C@H](Cc2ccccc2)OC(=O)C23CC(CNC(=O)[C@H](Cc4ccccc4)N(C)C(=O)[C@H](CCCC)NC(=O)[C@H](Cc4ccccc4F)NC1=O)(C2)C3 [compound 321] (cyclo([NMeA][X67][Nle][Phe(2-F)][Nle][NMeF][X1][PhLac]))
Reply: t

Query: // same read-out, input: CCCC[C@@H]1NC(=O)[C@H](Cc2ccc(OCCN3CCCC3)cc2)NC(=O)[C@H](C)N(C)C(=O)[C@H](Cc2ccccc2)OC(=O)C23CC(CNC(=O)[C@H](Cc4ccccc4)N(C)C(=O)[C@H](CCCC)NC(=O)[C@H](Cc4ccccc4F)NC1=O)(C2)C3 [compound 316] (cyclo([NMeA]Y(Ethyl(2-pyrrolidin-1-yl))[Nle][Phe(2-F)][Nle][NMeF][X1][PhLac]))
Reply: t

Query: Now try Cc1cccc(C[C@H]2C(=O)NCC34CC(C3)(C4)C(=O)O[C@@H](Cc3ccccc3)C(=O)N(C)[C@@H](C)C(=O)N[C@@H](Cc3cncnc3)C(=O)N[C@@H](CC3CC3)C(=O)N[C@@H](Cc3ccccc3F)C(=O)N[C@@H](CCC(C)(F)F)C(=O)N2C)c1 [compound 275] (cyclo([Ala(cPr)][Phe(2-F)][Nle(5,5-F2)][NMePhe(3-Me)][X1][PhLac][NMeA][Ala(pyrimidin-5-yl)])) .
Reply: t

----------
test target: KRAS-G12D protein (Homo sapiens, UniProt P01116, G12D)
method summary: SOS-mediated nucleotide exchange assay (BODIPY-GDP / Tb-streptavidin TR-FRET)
Format: biochemical
*1 amine or outer side, *2 acyl side, *3 side chain or, on linkers, in order; H or OH if unused. Where a SMILES comes first, the peptide text is derived from it. [ ]: non-standard residue; d: D form. cBu(1-CO,cis-3-CH2NH) = O=C([C@H]1C[C@@H](CN[*:1])C1)[*:2]; X60 = O=C([C@H](Cc1ccc(NC2=NCCN2)cc1)N[*:1])[*:2]; Bip = N[C@@H](Cc1ccc(-c2ccccc2)cc1)C(=O)O; NHCH2CH2SCH2CO = O=C(CSCCN[*:1])[*:2]; hTyr = N[C@@H](CCc1ccc(O)cc1)C(=O)O; NMeF = CN[C@@H](Cc1ccccc1)C(=O)O; hLys = NCCCCC[C@H](N)C(=O)O; Nle = CCCC[C@H](N)C(=O)O
measurement type: pEC50
Numbers only, as −log10 of the molar value.

>>> readout_value("CCCCC[C@@H]1NC(=O)[C@H](Cc2ccc(OC)cc2)NC(=O)[C@H](CC2CCC2)NC(=O)[C@H](Cc2cccnc2)NC(=O)[C@H](CCCNC(=N)N)NC(=O)[C@H](Cc2ccccc2F)NC(=O)CSC[C@@](C)(C(N)=O)NC(=O)[C@H](Cc2ccccc2)N(C)C1=O")
7.83
>>> readout_value("CCCC[C@@H]1NC(=O)[C@H](CCCCCN)NC(=O)[C@H](CCCNC(=N)N)NC(=O)[C@H](Cc2ccccc2)NC(=O)CSCCNC(=O)[C@H](Cc2ccccc2)N(C)C(=O)[C@H](CCc2ccc(O)cc2)NC(=O)[C@H](Cc2ccc(-c3ccccc3)cc2)NC1=O [compound 194] (cyclo([Bip][hTyr][NMeF][NHCH2CH2SCH2CO]FR[hLys][Nle]))")
5.35

// switching to the query compound
Query: What does the data say about its pEC50? Entry: CCCC[C@@H]1NC(=O)[C@H](Cc2ccc(NC3=NCCN3)cc2)NC(=O)[C@H](CCCNC(=N)N)NC(=O)[C@H](Cc2ccccc2)NC(=O)[C@H]2C[C@@H](CNC(=O)[C@H](Cc3ccccc3)N(C)C(=O)[C@H](CCCC)NC(=O)[C@H](Cc3ccc(OC)cc3)NC1=O)C2 [compound 207] (cyclo(FR[X60][Nle]Y(Me)[Nle][NMeF][cBu(1-CO,cis-3-CH2NH)]))
Reply: 7.81
